System: glyphosate resistant Conyza canadensis (L.) (ERICA), horseweed
Test: Postemergence herbicide evaluation, growth of Conyza canadensis (ERICA)
Type: in vivo
Conditions: Erigeron canadensis, post-emergence, 504 h, read-out: Ave. ERICA
Value Kind: pest or weed control at 560 g/ha

# count of solved cases: 5
Compound | pest or weed control at 560 g/ha
O=C(COc1ccc(Cl)cc1Cl)Nc1ccc(Cl)cc1 | 75%
O=C(COc1ccc(Cl)cc1Cl)Oc1ccc(Cl)cc1 | 90%
O=C(COc1ccc(Cl)cc1Cl)OCc1ccccc1 [Compound E4, Benzyl 2-(2,4-dichlorophenoxy)acetate] | 99%
O=C(COc1ccc(Cl)cc1Cl)OCOC(=O)c1ccccc1 | 95%
O=C(COc1ccc(Cl)cc1Cl)n1cnc2ccccc21 | 99%

Now examine the next entry.
Consider N#C/C(=N\OC(=O)COc1ccc(Cl)cc1Cl)c1ccccc1 . Its measured pest or weed control at 560 g/ha is 98%

====

Catalogue of compounds with associated pest or weed control at 560 g/ha
Tested on: weeds (ABUTH, AMATA, AMBEL, CHEAL, ERICA)
Assay: Postemergence herbicide evaluation, overall average % weed control across ABUTH, AMATA, AMBEL, CHEAL, ERICA
Assay type: in vivo
Settings: post-emergence, 168 h; 560 g ae/ha, 7 DAA, average over the five weeds; read-out: Overall Ave % Weed Control
All answers are understood in %, so give the number only.

Compound | pest or weed control at 560 g/ha / %
O=C(COc1ccc(Cl)cc1Cl)ON(Cc1ccccc1)Cc1ccccc1 [Compound A14] | 44

Value of measured pest or weed control at 560 g/ha for the entry O=C(COc1ccc(Cl)cc1Cl)ONC(=O)c1ccc(C(=O)NOC(=O)COc2ccc(Cl)cc2Cl)cc1 [Compound B4] : 69

For O=C(COc1ccc(Cl)cc1Cl)n1cnc2ccccc21 [Compound D4] the compound record lists pest or weed control at 560 g/ha as 76

====

System: Ambrosia artemisiifolia (AMBEL), common ragweed
Assay: Postemergence herbicide evaluation, growth of Ambrosia artemisiifolia (AMBEL)
Assay type: in vivo
Details: Ambrosia artemisiifolia, post-emergence, 336 h, 560 g ae/ha, 14 DAA, percent reduction in plant size relative to untreated control; read-out: AVE. AMBEL
Mark 1.0 only when pest or weed control at 560 g/ha stays strictly below 90%. Values equal to the cut-off are 0.0.

Query Smiles | Discrete Label
C/C(N)=N/OC(=O)COc1ccc(Cl)cc1Cl | 0.0

Exam item: # check: pest or weed control at 560 g/ha < 90% for N/C(Cc1ccccc1)=N\OC(=O)COc1ccc(Cl)cc1Cl
Marked response: 0.0

Exam item: # TODO verify pest or weed control at 560 g/ha < 90% strictly for this compound: O=C(Cc1ccccc1)NOC(=O)COc1ccc(Cl)cc1Cl
Marked response: 0.0

Exam item: Quick check: does N/C(=N\OC(=O)COc1ccc(Cl)cc1Cl)c1ccco1 have pest or weed control at 560 g/ha under 90%?
Marked response: 1.0

Exam item: Decide: pest or weed control at 560 g/ha of CN(OC(=O)COc1ccc(Cl)cc1Cl)C(=O)c1ccccc1 strictly below 90%?
Marked response: 0.0

Exam item: Strictly below 90%: is that where pest or weed control at 560 g/ha of O=C(COc1ccc(Cl)cc1Cl)NOCc1ccccc1 sits?
Marked response: 0.0
